B1: EHEE_rd2_0196 (parent)
chain: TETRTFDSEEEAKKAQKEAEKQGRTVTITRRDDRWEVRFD

# Variants of: B1
# Run description: folding stability dG (cDNA display proteolysis); higher = more stable
# Run conditions: PBS, room temperature
Measure name: folding stability dG (kcal/mol)
The response must be a number in kcal/mol with no trailing unit.

Problem: GET /values?readout=folding stability dG&item= E10M
Solution: 2.59

Problem: GET /values?readout=folding stability dG&item= F6T
Solution: 0.546

Problem: GET /values?readout=folding stability dG&item= R4L
Solution: 3.43

Problem: GET /values?readout=folding stability dG&item= K13P
Solution: 0.105

Problem: GET /values?readout=folding stability dG&item= E18W
Solution: 2.63

Problem: GET /values?readout=folding stability dG&item= R24H
Solution: 3

Problem: GET /values?readout=folding stability dG&item= F39K
Solution: 1.29

Problem: GET /values?readout=folding stability dG&item= T29K
Solution: 2.44

Problem: GET /values?readout=folding stability dG&item= Q16S
Solution: 2.69

Problem: GET /values?readout=folding stability dG&item= R31G
Solution: 1.68

Problem: GET /values?readout=folding stability dG&item= K14F
Solution: 3.02
